Values from the DeepSol protein solubility set

test: soluble on expression in E. coli; label from the status in PepcDB or PDB records
quantity: soluble on expression in E. coli

[[record]]
chain = "EIINEEGKLERKADMFTRRTIQTHRAVTSVDTAVEALAVSIGEKACVDLGYMASLMGGPEKIPQIVEDLKGIIFKNPATGPFDLEDGGAHWHQGWQTADEYLSGNVRAKLAIARAAAEENPQFAINAEKLEQVQPKDLTASEISVRIGASWIDPEYYQQFMFELLHTPVYLQDRKIKLQYSPTTGEWNVQGKSTDNRDNVRVYATYGTKRINAYEIFEQTLNQRDVRIFDKTEVDGKEVRVLNEKQTAIAQQKQEAMCETFKDWIFKDPERRETLCRRYNEKFNCIRPREYDGSHIRFAGMNPEISLRTHQ"
result = "not soluble"

[[record]]
chain = "MRGHLIDGDGRCIHYHGPFDVVGNKCATCNEWWACHRCHEEIANHPFGKMLIDAPSSLQCGHCGELMAYGVQKCPRCGHNFNPGCSLHTPLYYEMPSLEHHHHHH"
result = "not soluble"

